These entries and their values trace back to patent US11214803B2.

Test: Tolerability in Sprague-Dawley rats, plasma chemistry markers (Example 22)
Format: in vivo
Settings: male Sprague-Dawley rats, 50 mg/kg s.c. weekly for 6 weeks (7 doses), 48 hours after last dose
Procedure: Sprague-Dawley rats are a multipurpose model used for safety and efficacy evaluations. The rats were treated with Ionis modified oligonucleotides from the studies described in the Examples above and evaluated for changes in the levels of various plasma chemistry markers.
Measured ALT, listed per entry.
QUANTITY: ALT (U/L)

[[record]]
substance = "1198872 (TGTATGTCAGAAGAGT; chemically modified gapmer, further chemistry not given here) [compound 1198872]"
quantity = "ALT"
value_measured = 109

[[record]]
substance = "1198623 (CTAAGTAAGGTTTCCC; modified gapmer, further chemistry not given here) [compound 1198623]"
quantity = "ALT"
value_measured = 96

[[record]]
substance = "1198728 (TATTAGAGTATGTGGC; modified gapmer, further chemistry not given here) [compound 1198728]"
quantity = "ALT"
value_measured = 54

[[record]]
substance = "1198831 (CACTTTTACATTAGGA; chemically modified gapmer, further chemistry not given here) [compound 1198831]"
quantity = "ALT"
value_measured = 54

[[record]]
substance = "1197270 (TTAAAGTGTATGTCAG; cEt gapmer with 2'-OMe nucleoside, phosphorothioate, further chemistry not given here) [compound 1197270]"
quantity = "ALT"
value_measured = 84

[[record]]
substance = "1198605 (GTAATATTGCAATCTG; modified gapmer, further chemistry not given here) [compound 1198605]"
quantity = "ALT"
value_measured = 46

